Molecular target: T1, hEphA2 on CHOK1-EphA2 cells (human, UniProt P29317 24-976)
T1 construct: EphA2, human, transfection-ready hEphA2 cDNA (OriGene Technologies); also called cell-surface expressed hEphA2; source: CHOK1 cells transfected with hEphA2 cDNA (OriGene Technologies), single cell clone, on cells
T1 sequence (P29317 24-976): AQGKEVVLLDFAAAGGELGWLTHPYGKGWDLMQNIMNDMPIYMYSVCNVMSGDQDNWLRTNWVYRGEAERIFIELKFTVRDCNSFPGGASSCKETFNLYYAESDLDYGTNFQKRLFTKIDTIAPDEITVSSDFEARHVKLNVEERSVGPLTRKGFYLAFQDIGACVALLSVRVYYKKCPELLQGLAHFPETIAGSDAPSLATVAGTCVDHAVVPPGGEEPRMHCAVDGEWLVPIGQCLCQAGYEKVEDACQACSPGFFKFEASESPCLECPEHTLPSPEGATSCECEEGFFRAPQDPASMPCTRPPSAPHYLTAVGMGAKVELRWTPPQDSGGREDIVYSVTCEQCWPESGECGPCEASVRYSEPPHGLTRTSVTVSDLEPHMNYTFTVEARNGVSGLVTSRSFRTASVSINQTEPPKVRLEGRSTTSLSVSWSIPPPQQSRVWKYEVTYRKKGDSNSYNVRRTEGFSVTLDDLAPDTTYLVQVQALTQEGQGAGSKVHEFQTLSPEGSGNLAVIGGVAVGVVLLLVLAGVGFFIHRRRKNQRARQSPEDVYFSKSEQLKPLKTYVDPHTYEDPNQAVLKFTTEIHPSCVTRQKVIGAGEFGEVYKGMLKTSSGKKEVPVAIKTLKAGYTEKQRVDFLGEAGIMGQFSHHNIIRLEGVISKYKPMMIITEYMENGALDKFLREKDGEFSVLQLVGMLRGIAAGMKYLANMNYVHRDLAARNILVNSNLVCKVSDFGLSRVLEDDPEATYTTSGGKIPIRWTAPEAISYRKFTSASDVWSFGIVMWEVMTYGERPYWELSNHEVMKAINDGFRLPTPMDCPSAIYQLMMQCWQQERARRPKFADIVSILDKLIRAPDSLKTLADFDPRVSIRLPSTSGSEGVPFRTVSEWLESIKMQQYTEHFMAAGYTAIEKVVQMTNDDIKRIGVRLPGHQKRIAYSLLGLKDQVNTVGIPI
Test: flow cytometry on cells; Abdurins at 1nM to 7μM incubated with CHOK1-EphA2 cells; detected with mouse anti-HisTag-FITC; the constant is printed as 'Affinity (M)'
Settings: one partner purified
// values below are reported pKd
Bear in mind: pKd is minus log10 of a mol/L concentration; give just that figure.

>>> numeric_value("Abdurin B6, affinity matured EphA2 binder (designed binder, Abdurin scaffold (human IgG1 CH2 domain), stretch before loop BC; loop BC of matured clone B6, in place of Val266-Pro271 (VSHEDP) of the scaffold; Abdurin scaffold (human IgG1 CH2 domain), stretch between loops BC and DE; loop DE from the parental clone E10, in place of Glu293-Thr299 (EEQYNST); Abdurin scaffold (human IgG1 CH2 domain), stretch after loop DE; source: E. coli Shuffle cells, …) GPSVFLFPPKPKDTLMISRTPEVTCVVVDPYLHDDEVKFNWYVDGVEVHNAKTKPRQYDPLYGYRVVSVLTVLHQDWLNGKEYKCKVSNKALPAPIEKTISKAK")
6.82

Consider Abdurin D2, affinity matured EphA2 binder (designed binder, Abdurin scaffold (human IgG1 CH2 domain), stretch before loop BC; loop BC of matured clone D2, in place of Val266-Pro271 (VSHEDP) of the scaffold; Abdurin scaffold (human IgG1 CH2 domain), stretch between loops BC and DE; loop DE from the parental clone E10, in place of Glu293-Thr299 (EEQYNST); Abdurin scaffold (human IgG1 CH2 domain), stretch after loop DE; Not the phage loop DE clone of the …) GPSVFLFPPKPKDTLMISRTPEVTCVVVDYEAAALEVKFNWYVDGVEVHNAKTKPRQYDPLYGYRVVSVLTVLHQDWLNGKEYKCKVSNKALPAPIEKTISKAK . Its measured pKd is 5.88

// field: pKd; key: Abdurin G7, affinity matured EphA2 binder (designed binder, Abdurin scaffold (human IgG1 CH2 domain), stretch before loop BC; loop BC of matured clone G7, in place of Val266-Pro271 (VSHEDP) of the scaffold; Abdurin scaffold (human IgG1 CH2 domain), stretch between loops BC and DE; loop DE from the parental clone E10, in place of Glu293-Thr299 (EEQYNST); Abdurin scaffold (human IgG1 CH2 domain), stretch after loop DE; source: E. coli Shuffle cells, …) GPSVFLFPPKPKDTLMISRTPEVTCVVVDPHLGVDEVKFNWYVDGVEVHNAKTKPRQYDPLYGYRVVSVLTVLHQDWLNGKEYKCKVSNKALPAPIEKTISKAK ; value = 6.48

Form field pKd, entry Abdurin B11, affinity matured EphA2 binder (designed binder, Abdurin scaffold (human IgG1 CH2 domain), stretch before loop BC; loop BC of matured clone B11, in place of Val266-Pro271 (VSHEDP) of the scaffold; Abdurin scaffold (human IgG1 CH2 domain), stretch between loops BC and DE; loop DE from the parental clone E10, in place of Glu293-Thr299 (EEQYNST); Abdurin scaffold (human IgG1 CH2 domain), stretch after loop DE; Not the phage loop DE clone of the …) GPSVFLFPPKPKDTLMISRTPEVTCVVVDYRADYLEVKFNWYVDGVEVHNAKTKPRQYDPLYGYRVVSVLTVLHQDWLNGKEYKCKVSNKALPAPIEKTISKAK : 6.39

Where do the numbers come from? From paper PMC4552014.
